tested on: SF-268; experiment: NCI tumour cell line growth inhibition, 48 h
Active and inactive are the calls of the source. No stated cut-off is given here; in the data, active = GI50 up to about 1.1 µM and inactive = higher.
Mark one answer only. Choices: true (active), false (inactive)

// return assay outcome for CCCCC/C=C\C=C1\C(=O)C=C[C@@H]1C/C=C\CCCC(=O)O false

// return assay outcome for CCc1ccccc1NC(=O)C(=O)C(C(=O)c1ccc(OC)cc1)c1ccc(OC)cc1 (centres undefined) false

// return assay outcome for Nc1nc(=S)[nH]c2nc3c(c(-c4ccccc4)c12)CCCC3 false

// return assay outcome for CCC1=CCN(c2cc(C)ccn2)OC1c1ccc(OC)cc1 (centres undefined) false

// return assay outcome for O=C(Nc1ccc(Cl)c(C(F)(F)F)c1)C(=O)c1c(O)c2ccccc2oc1=O false

// return assay outcome for CCCC(N)C(=O)c1ccccc1 (centres undefined) false

// return assay outcome for CC1CCCCc2nc3c(c(=O)n21)CCCC3 (centres undefined) false

// return assay outcome for NC(=O)OCC1=C(COC(N)=O)C(=O)c2c(O)ccc(O)c2C1=O false

// return assay outcome for CCOP(=O)(CCCC(O)CNc1nc(N)nc(Cl)c1/N=N/c1ccc(Cl)cc1)OCC (centres undefined) false

// return assay outcome for Cn1nc(C(=O)N2CC(CCl)c3c2cc(N)c2ccccc32)cc1NC(=O)Nc1cc(C(=O)N2CC(CCl)c3c2cc(N)c2ccccc32)nn1C (centres undefined) true

// return assay outcome for CC(C)(C)C1=NO[C@H]2[C@@H](NC(=O)c3ccccc3)CC[C@@H]12 false

// return assay outcome for O=C1N=C(Nc2ccccc2Cl)N/C1=C\c1ccc(Cl)cc1Cl false

// return assay outcome for CC1CC2C(=O)N(c3ccccc3)C(=O)C2c2[nH]c3ccccc3c21 (centres undefined) false

// return assay outcome for CC(C)=CCC/C(C)=C/CC/C(C)=C/CC/C(=C/CC/C(C)=C\CC/C(C)=C/CC/C(C)=C/CC/C(C)=C/Cc1cc(O)ccc1O)CO false

// return assay outcome for O=C1c2ccccc2C(=O)N1C/C=N/NS(=O)(=O)c1ccc(F)cc1 false

// return assay outcome for CCCCCCC/C=C1\CCC(CN(C)C)C1=O (centres undefined) false

// return assay outcome for CN(CCN1C(=O)c2cccc3cccc(c23)C1=O)CCN1C(=O)c2cccc3cccc(c23)C1=O false

// return assay outcome for O=C1/C(=C\c2ccc(F)cc2)CCOc2c1ccc1ccccc21 false

// return assay outcome for COC(=O)c1c(CC#N)cccc1CC#N false

// return assay outcome for C[N+](C)(N)c1nc(N)c(C#N)c(C#N)c1C#N false

// return assay outcome for COC1CCC(OS(C)(=O)=O)CO1 (centres undefined) false

// return assay outcome for CN(C)CCOc1ccc2[nH]c(C(=O)N3CC(CCl)c4c3cc(N)c3ccccc43)cc2c1 (centres undefined) true

// return assay outcome for C=C(C)CCOC(c1ccccc1)(c1ccccc1)c1ccccc1 false

// return assay outcome for Nc1nc2c(ncn2C2OC(CO)C(O)C2O)c(=O)o1 (centres undefined) false

// return assay outcome for Nc1c2ccccc2nc2ccc(C(=O)Nc3ccc(S(N)(=O)=O)cc3)cc12 false

// return assay outcome for Cc1c(Cl)nc(Cl)nc1Cl false

// return assay outcome for Cc1ccccc1N(C)S(=O)(=O)c1ccccc1[N+](=O)[O-] false

// return assay outcome for O=C(NCCCCCCCCCCCCNC(=O)Nc1cccc2ccccc12)Nc1cccc2ccccc12 false

// return assay outcome for O=S(=O)(c1ccc(Br)cc1)n1c2ccc(Br)cc2c2nc3ccccc3nc21 false

// return assay outcome for O=C(NCCNCCCNC(=O)c1cc(-c2ccccc2)nc2ccccc12)c1cccc(OCc2ccccc2)c1OCc1ccccc1 false

// return assay outcome for CN1C(=O)NC2(O)c3ccccc3C(=O)C12O (centres undefined) false

// return assay outcome for COc1ccc2c(c1)C(=O)C1(C2)[C@H](c2ccccc2)C2C(=O)c3cc(OC)ccc3C2[C@H]1c1ccccc1 (some centres undefined) false

// return assay outcome for COc1ccccc1-c1cc(O)c2c(C)cc(C)nc2n1 false

// return assay outcome for O=c1[nH]cc(NCCCl)c(=O)[nH]1 false
